Tested on: OVCAR-4
Test: NCI tumour cell line growth inhibition, 48 h
Calls of active or inactive are those of the source. Rule as the data show it: active = GI50 up to about 1.1 µM and inactive = higher.
# maps each entry to its GI50

COc1ccc2c3c([nH]c2c1)CCN(Cc1ccccc1)C3 : 62.8 µM (inactive)
COc1ccc(OC)c2c3c([nH]c12)C(=O)Nc1nc(N)nc(N)c1C3 : > 100 µM (inactive)

**Q:** # lookup: GI50 of Nc1c2ccccc2nc2c(C(=O)Nc3ccc(S(N)(=O)=O)cc3)cccc12
**A:** > 100 µM (inactive)

**Q:** # lookup: GI50 of O=[N+]([O-])c1cccnc1-n1cnc2ccccc21
**A:** > 100 µM (inactive)

**Q:** # lookup: GI50 of CC1(C)C(=O)N(O)C(C)(C)N1O
**A:** > 10 µM (inactive)

**Q:** # lookup: GI50 of CN(C)C(=S)/N=c1\ss/c(=N\C(=S)N(C)C)n1C1CCCCC1
**A:** 15.5 µM (inactive)

**Q:** # lookup: GI50 of CCOC(=O)C1C(c2ccc3c(c2)OCO3)c2c(n[nH]c2O)CC1(O)OCC (stereo unspecified)
**A:** > 100 µM (inactive)

**Q:** # lookup: GI50 of CC1(C)CC2C(=O)c3ccccc3NC2c2ccccc21 (stereo unspecified)
**A:** 57 µM (inactive)

**Q:** # lookup: GI50 of NC(=S)N/N=C1/C(=O)N(c2ccc(Cl)cc2Cl)C(=O)C(=O)C1c1nc2ccccc2s1 (stereo unspecified)
**A:** > 100 µM (inactive)

**Q:** # lookup: GI50 of O=c1[nH]cnc2c1ncn2[C@@H]1C[C@H]1CO
**A:** > 100 µM (inactive)

**Q:** # lookup: GI50 of C=C1CCCC2[C@](C)(CC3=C(O)C(=O)C=C(OC)C3=O)[C@@H](C)CC[C@]12C (stereo partly specified)
**A:** 5.65 µM (inactive)
